Recorded measurements of IC50, one per entry
# System: Colo-205
# method summary: In vitro tumor cell proliferation, Colo-205
# Format: cell-based
# recorded conditions: Colo-205; values given with an undefined *; dihydrochloride; read-out: In vitro Tumor Cell Proliferation (IC50, μM) Colon Colo-205
Counter-ions that a name gives are not always drawn.
Expressed in µM, but write only the number.

COc1cccc(CCNc2nc(N[C@H]3CC[C@H](N)CC3)nc3c2ncn3C2CCCC2)c1 [Example 27, dihydrochloride]: 4.6
N[C@H]1CC[C@H](Nc2nc(N[C@H]3CC[C@H](O)CC3)c3ncn(C4CCCC4)c3n2)CC1 [Example 145a, dihydrochloride]: 1.6
N[C@H]1CC[C@H](Nc2nc(Nc3ccc(OC(F)(F)F)cc3)c3ncn(C4CCCC4)c3n2)CC1 [Example 5, dihydrochloride]: 1.2

The reported value for COc1ccc(CNc2nc(N[C@H]3CC[C@H](N)CC3)nc3c2ncn3C(C)C)cc1OC [Example 19, dihydrochloride] in terms of IC50 is 10

Lab book: IC50 of N[C@H]1CC[C@H](Nc2nc(NCCOCCO)c3ncn(C4CCCC4)c3n2)CC1 [Example 26, dihydrochloride] noted as 15

molecule N[C@H]1CC[C@H](Nc2nc(NCC3CCC(CO)CC3)c3ncn(C4CCCC4)c3n2)CC1 (stereo partly drawn) [Example 10, dihydrochloride] , IC50 observed: 2.6

# IC50 (molecule: N[C@H]1CC[C@H](Nc2nc(NNc3ccc(Cl)cc3Cl)c3ncn(C4CCCC4)c3n2)CC1 [Example 147, dihydrochloride] ) is 3.5

Sample COCCOCCCNc1nc(N[C@H]2CC[C@H](N)CC2)nc2c1ncn2C1CCCC1 [Example 15, dihydrochloride] ; IC50 observed: 1.7

// sample N[C@H]1CC[C@H](Nc2nc(Nc3cccc(F)c3)c3ncn(C4CCCC4)c3n2)CC1 [Example 21, dihydrochloride] , its IC50 was 1.1

====

# Test system: HT-29
# method summary: In vitro tumor cell proliferation, HT-29
# Type: cell-based, human
# recorded conditions: HT-29; many values given with an undefined *; trihydrochloride; read-out: In vitro Tumor Cell Proliferation (IC50, μM) Colon HT-29
Structures can show the parent of a compound that is named as a salt.
This section presents molecules with their documented IC50 values.
A number alone suffices; assume µM.

Worked examples, 5 molecules total:
N[C@H]1CC[C@H](Nc2nc(NC3CCN(Cc4ccccc4OC(F)(F)F)CC3)c3ncn(C4CCCC4)c3n2)CC1 [Example 147-ab, trihydrochloride]: 0.62
N[C@H]1CC[C@H](Nc2nc(NC3CCN(Cc4ccc(Cl)cc4Cl)CC3)c3ncn(C4CCCC4)c3n2)CC1 [Example 147-x, trihydrochloride]: 0.6
N[C@H]1CC[C@H](Nc2nc(NC3CCN(Cc4cccc(F)c4)CC3)c3ncn(C4CCCC4)c3n2)CC1 [Example 147-j, trihydrochloride]: 0.22
N[C@H]1CC[C@H](Nc2nc(NCC3CCN(Cc4ccccc4)CC3)c3ncn(C4CCCC4)c3n2)CC1 [Example 147-ac, trihydrochloride]: 0.93
N[C@H]1CC[C@H](Nc2nc(NC3CCN(Cc4ccc(F)c(F)c4)CC3)c3ncn(C4CCCC4)c3n2)CC1 [Example 147-u, trihydrochloride]: 0.33

The value of IC50 measured for the molecule N[C@H]1CC[C@H](Nc2nc(NC3CCN(Cc4ccc(F)cc4)CC3)c3ncn(C4CCCC4)c3n2)CC1 [Example 147-l, trihydrochloride] turned out to be 0.4

Briefly, IC50 measured for N[C@H]1CC[C@H](Nc2nc(NC3CCN(Cc4ccccc4)CC3)c3ncn(C4CCCC4)c3n2)CC1 [Example 33, trihydrochloride] : 0.21

// IC50 lookup, molecule = N[C@H]1CC[C@H](Nc2nc(NC3CCN(Cc4ccccc4C(F)(F)F)CC3)c3ncn(C4CCCC4)c3n2)CC1 [Example 147-b, trihydrochloride] , result: 0.61

What the record says about Cc1cccc(CN2CCC(Nc3nc(N[C@H]4CC[C@H](N)CC4)nc4c3ncn4C3CCCC3)CC2)c1 [Example 147-i, trihydrochloride] : IC50 is 0.33

Just so you know, measured IC50 for CCN(CC)CCNc1nc(N[C@H]2CC[C@H](N)CC2)nc2c1ncn2C1CCCC1 [Example 6, trihydrochloride] came out at 7.7

Form: molecule = N[C@H]1CC[C@H](Nc2nc(NC3CCN(Cc4cc(Cl)ccc4Cl)CC3)c3ncn(C4CCCC4)c3n2)CC1 [Example 147-r, trihydrochloride] ; IC50 = 0.47

// N[C@H]1CC[C@H](Nc2nc(NC3CCN(Cc4ccc(F)cc4F)CC3)c3ncn(C4CCCC4)c3n2)CC1 [Example 147-h, trihydrochloride] : IC50 value = 0.47

The molecule listed as N[C@H]1CC[C@H](Nc2nc(NC3CCN(Cc4ccc5ccccc5c4)CC3)c3ncn(C4CCCC4)c3n2)CC1 [Example 147-p, trihydrochloride] shows IC50 equal to 0.72

Briefly, IC50 measured for N[C@H]1CC[C@H](Nc2nc(NC3CCN(Cc4ccc(Cl)c(Cl)c4)CC3)c3ncn(C4CCCC4)c3n2)CC1 [Example 147-o, trihydrochloride] : 0.77
